molecular target: MARK3 (human); test: KINOMEscan competition binding; settings: compound 10.0 µM
Label Satisfied when kinase still bound, per cent of control is strictly below 90%; at or above that, label Not satisfied.

(Q) Item CN1CCN(c2ccc(C(=O)Nc3ncc4c(n3)N(C)c3ccccc3C(=O)N4C)cc2)CC1 : kinase still bound, per cent of control beneath 90%, strictly?
(A) Not satisfied

(Q) Item COc1cc(N2CCN(C)CC2)ccc1Nc1ncc2c(n1)Nc1ccccc1NC2=O : kinase still bound, per cent of control beneath 90%, strictly?
(A) Not satisfied

(Q) Item N=C1NC(=O)/C(=C/c2ccc(-c3csc4ccccc34)o2)S1 : kinase still bound, per cent of control beneath 90%, strictly?
(A) Satisfied

(Q) Item CN1C(=O)c2ccccc2N(C)c2nc(Nc3ccc(N4CCC(O)CC4)cc3)ncc21 : kinase still bound, per cent of control beneath 90%, strictly?
(A) Satisfied

(Q) Item O=C1NC(=O)/C(=C/c2c[nH]c(=O)c(-c3ccc(N4CCNCC4)nc3)c2)S1 : kinase still bound, per cent of control beneath 90%, strictly?
(A) Not satisfied

(Q) Item CCN1CCN(Cc2cc(NC(=O)c3cccc4cc(-c5ccc(/C=C6\SC(=O)NC6=O)o5)ccc34)cc(C(F)(F)F)c2)CC1 : kinase still bound, per cent of control beneath 90%, strictly?
(A) Satisfied

(Q) Item COc1cc(N2CCN(C)CC2)ccc1Nc1ncc2c(n1)N(C)c1ccccc1N(C)C2=O : kinase still bound, per cent of control beneath 90%, strictly?
(A) Not satisfied

(Q) Item CN1C(=O)c2ccccc2N(C)c2nc(NS(=O)(=O)c3ccc(N)cc3)ncc21 : kinase still bound, per cent of control beneath 90%, strictly?
(A) Not satisfied
